Molecular target: 5HT6 human recombinant receptor (Homo sapiens, UniProt P50406)
Construct: purchased Receptor Biology; host or cells: HEK-293 cell membranes (recombinant expression)
Sequence (P50406 whole entry): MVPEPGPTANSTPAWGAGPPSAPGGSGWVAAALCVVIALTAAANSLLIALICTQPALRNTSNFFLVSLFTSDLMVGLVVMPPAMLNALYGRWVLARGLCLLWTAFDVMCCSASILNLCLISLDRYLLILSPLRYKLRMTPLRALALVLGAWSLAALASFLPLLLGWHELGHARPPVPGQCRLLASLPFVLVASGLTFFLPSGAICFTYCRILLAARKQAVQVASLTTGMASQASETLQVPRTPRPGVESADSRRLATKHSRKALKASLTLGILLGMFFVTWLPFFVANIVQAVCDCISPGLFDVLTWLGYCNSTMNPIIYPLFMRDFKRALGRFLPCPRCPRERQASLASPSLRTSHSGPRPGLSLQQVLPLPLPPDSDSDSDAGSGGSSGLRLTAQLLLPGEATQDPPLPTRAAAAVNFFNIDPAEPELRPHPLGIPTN
Test: Binding Test to 5-HT6 Receptors ([3H]-LSD displacement, HEK-293 membranes)
Conditions: compound at 10^−8 M, [3H]-LSD 2.7 nM, 60 min, 37° C.
Where a name gives a salt, the structure may show the parent alone.
readoutType: inhibition at 0.01 µM
Remember to put the unit after the number in your answer.

Exercise: What measured inhibition at 0.01 µM goes with N=C(N)N/N=C1/CCc2ccc(NS(=O)(=O)c3c(Cl)nc4sccn34)cc21 [Compound 9] ?
Key: 84.7%

Exercise: What measured inhibition at 0.01 µM goes with CN1CCOc2cc(S(=O)(=O)Nc3ccc4c(c3)/C(=N\NC(=N)N)CC4)ccc21 [Compound 23, hydrochloride] ?
Key: 69.3%

Exercise: What measured inhibition at 0.01 µM goes with N=C(N)N/N=C1/CCc2ccc(NS(=O)(=O)c3ccc4ccccc4c3)cc21 [Compound 8, hydrochloride] ?
Key: 56.1%

Exercise: What measured inhibition at 0.01 µM goes with N=C(N)NN=C1CCc2cc(NS(=O)(=O)c3c(Cl)nc4sccn34)ccc21 [Compound 21, hydrochloride] ?
Key: 78.1%

Exercise: What measured inhibition at 0.01 µM goes with CC1(C)CC(=NNC(=N)N)c2cc(NS(=O)(=O)c3c(Cl)nc4sccn34)ccc21 [Compound 20, hydrochloride] ?
Key: 77.2%

Exercise: What measured inhibition at 0.01 µM goes with O=S(=O)(Nc1ccc2c(c1)C(N1CCNCC1)CC2)c1c(Cl)nc2sccn12 (stereo not shown) [Compound 5] ?
Key: 63.6%

Exercise: What measured inhibition at 0.01 µM goes with CC1Cc2ccc(NS(=O)(=O)c3c(Cl)nc4sccn34)cc2/C1=N\NC(=N)N (stereo not shown) [Compound 11] ?
Key: 84.7%

Exercise: What measured inhibition at 0.01 µM goes with Cc1c(S(=O)(=O)Nc2ccc3c(c2)C(N2CCN(C)CC2)CC3)sc2ccc(Cl)cc12 (stereo not shown) [Compound 3] ?
Key: 55.7%

Exercise: What measured inhibition at 0.01 µM goes with CN1CCOc2cc(S(=O)(=O)Nc3ccc4c(c3)C(=NNC3=NCCN3)CC4)ccc21 [Compound 26, hydrochloride] ?
Key: 51%

Exercise: What measured inhibition at 0.01 µM goes with CN1CCN(C2CCc3cc(NS(=O)(=O)c4c(Cl)nc5sccn45)ccc32)CC1 (stereo not shown) [Compound 14] ?
Key: 75.5%

Exercise: What measured inhibition at 0.01 µM goes with O=S(=O)(Nc1ccc2c(c1)C(=NNC1=NCCN1)CC2)c1c(Cl)nc2sccn12 [Compound 24, hydrochloride] ?
Key: 83.3%

Exercise: What measured inhibition at 0.01 µM goes with CN1CCN(C2CCc3ccc(N(C)S(=O)(=O)c4c(Cl)nc5sccn45)cc32)CC1 (stereo not shown) [Compound 16] ?
Key: 29%

Exercise: What measured inhibition at 0.01 µM goes with CN1CCN(C2CCc3ccc(NS(=O)(=O)c4c(Cl)nc5sccn45)cc32)CC1 (racemic) [Compound 4] ?
Key: 63%

Exercise: What measured inhibition at 0.01 µM goes with CN(c1ccc2c(c1)/C(=N\NC(=N)N)CC2)S(=O)(=O)c1c(Cl)nc2sccn12 [Compound 22, hydrochloride] ?
Key: 83.9%

Exercise: What measured inhibition at 0.01 µM goes with CN1CCN(C2CC(C)(C)c3ccc(NS(=O)(=O)c4c(Cl)nc5sccn45)cc32)CC1 (stereo not shown) [Compound 15] ?
Key: -6.6%

Exercise: What measured inhibition at 0.01 µM goes with CN1CCN(C2CCc3ccc(NS(=O)(=O)c4ccc5ccccc5c4)cc32)CC1 (stereo not shown) [Compound 2] ?
Key: 71.6%
